TARGET_ENTITY: MAGE-A11:PCF11 interaction (GST-MAGE-A11 and FAM-PCF11_4) (Homo sapiens)
Construct: GST-MAGE-A11 MHD (human MAGE-A11 MHD amino acid 218-429); made in house; host or cells: E. coli BL21(DE3)
Sequence (P43364 218-429): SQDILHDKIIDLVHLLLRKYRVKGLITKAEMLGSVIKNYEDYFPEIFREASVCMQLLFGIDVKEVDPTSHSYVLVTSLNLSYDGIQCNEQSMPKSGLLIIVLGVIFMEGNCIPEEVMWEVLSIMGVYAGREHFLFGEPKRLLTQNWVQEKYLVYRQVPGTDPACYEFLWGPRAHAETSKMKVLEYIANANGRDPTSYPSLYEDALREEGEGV
MEASUREMENT_DESCRIPTION: TR-FRET primary / single point screen at 15 µM
Format: binding
CONDITIONS_USED: single point TR-FRET screening of 797 quinoline compounds against MAGE-A11:PCF11
Measured percent inhibition (TR-FRET) determines class: bin 0: < -100; bin 1: ≥ -100 and < -2; bin 2: ≥ -2

O=C(O)c1ccccc1CN1CCC(Nc2ccnc3cc(Cl)ccc23)CC1
bin 1
COc1ccc(-c2csc(N3CCN(c4cc(C)nc5ccccc45)CC3)n2)cc1OC
bin 1
CCc1ccc(CNCCCNc2c3ccc(Cl)cc3nc3ccc(OC)cc23)cc1
bin 0
CCCN(CCCNc1c2ccc(Cl)cc2nc2ccc(OC)cc12)Cc1c(F)cccc1OC
bin 0
COc1ccc2nc3cc(Cl)ccc3c(NCCCNCc3c(F)cccc3C(F)(F)F)c2c1
bin 0
Cc1[nH]cnc1CN(CCCCNc1ccnc2cc(Cl)ccc12)Cc1ccccc1
bin 2
CCCN(CCCNc1c2ccc(Cl)cc2nc2ccc(OC)cc12)Cc1cnn(C)c1
bin 0
COc1ccc2nc3cc(Cl)ccc3c(NCCCNCc3ccsc3)c2c1
bin 0

Query: Sort into band: Cc1cc(N2CCN(CC(O)COCC(C)C)CC2)c2ccccc2n1 (stereo not shown)
Result: bin 1

Query: Quick one: `CCCN(CCCNc1c2ccc(Cl)cc2nc2ccc(OC)cc12)Cc1nccs1`
Result: bin 0

Query: Subsequent entry: `CCCN(CCCCNc1ccnc2cc(Cl)ccc12)Cc1cc(F)ccc1OC`
Result: bin 2

Query: Also need `CCOc1ccc2ncc(S(=O)(=O)c3ccc(C)cc3)c(N3CCN(c4ccccc4F)CC3)c2c1` , thanks.
Result: bin 2

Query: Same again, this time with `CCCN(CCCNc1c2ccc(Cl)cc2nc2ccc(OC)cc12)Cc1ccc2ccccc2c1`
Result: bin 0

Query: What do you have for `CCCN(CCCNc1c2ccc(Cl)cc2nc2ccc(OC)cc12)Cc1ccc(Br)o1` ?
Result: bin 0

Query: Further, for `Cc1ccc(S(=O)(=O)c2cnc3ccccc3c2N2CCN(c3cc(C)ccc3C)CC2)cc1` ?
Result: bin 2

Query: And for `CCN1CCN(c2c(S(=O)(=O)c3ccc(C)c(C)c3)cnc3ccc(F)cc23)CC1` ?
Result: bin 2
